subject_of_test: Toll-like receptor 8 (Homo sapiens, UniProt Q9NR97)
Sequence (Q9NR97 whole entry): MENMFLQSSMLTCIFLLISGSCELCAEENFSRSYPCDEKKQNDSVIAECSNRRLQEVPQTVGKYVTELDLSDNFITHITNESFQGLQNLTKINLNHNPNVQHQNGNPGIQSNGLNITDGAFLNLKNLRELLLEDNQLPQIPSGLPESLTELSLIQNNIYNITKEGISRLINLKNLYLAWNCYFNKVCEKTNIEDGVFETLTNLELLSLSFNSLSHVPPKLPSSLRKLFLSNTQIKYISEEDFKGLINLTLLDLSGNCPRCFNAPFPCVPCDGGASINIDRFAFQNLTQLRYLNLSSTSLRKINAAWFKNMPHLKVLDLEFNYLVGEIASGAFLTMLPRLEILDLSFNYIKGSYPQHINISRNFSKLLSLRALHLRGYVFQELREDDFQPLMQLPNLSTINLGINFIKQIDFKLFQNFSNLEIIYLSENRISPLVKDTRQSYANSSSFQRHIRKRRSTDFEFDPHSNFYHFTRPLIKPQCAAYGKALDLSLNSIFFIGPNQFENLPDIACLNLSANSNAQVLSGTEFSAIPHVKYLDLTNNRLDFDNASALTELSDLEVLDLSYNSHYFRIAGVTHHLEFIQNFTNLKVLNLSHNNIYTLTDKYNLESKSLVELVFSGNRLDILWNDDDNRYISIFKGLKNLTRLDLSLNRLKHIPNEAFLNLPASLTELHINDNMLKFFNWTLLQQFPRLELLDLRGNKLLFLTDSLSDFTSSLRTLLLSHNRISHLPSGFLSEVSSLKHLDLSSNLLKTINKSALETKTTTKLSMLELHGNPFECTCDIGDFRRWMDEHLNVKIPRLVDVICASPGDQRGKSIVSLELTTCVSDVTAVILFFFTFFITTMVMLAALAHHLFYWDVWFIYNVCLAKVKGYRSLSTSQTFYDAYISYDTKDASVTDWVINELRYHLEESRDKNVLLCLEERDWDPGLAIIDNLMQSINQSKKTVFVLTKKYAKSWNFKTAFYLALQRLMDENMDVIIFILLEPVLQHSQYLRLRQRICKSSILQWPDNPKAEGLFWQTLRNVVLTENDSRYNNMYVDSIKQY
protocol_text: Agonist activity at human TLR8 expressed in HEK293 cells co-expressing secreted alkaline phosphatase assessed as induction of NF-kappaB/AP-1 promoter activity by measuring increase in secreted alkaline phosphatase level by spectrophotometric method
pEC50: −log10 of the molar value.
Given measured pEC50, output fulfilled if it is greater than or equal to 6 and not fulfilled if not.

{"mol": "CCCCNc1nc(N)nc(C)c1C#CCN1CCOCC1", "answer_label": "not fulfilled"}
{"mol": "CCCCNc1nc(N)nc(C)c1CCCN1CCCCCC1", "answer_label": "fulfilled"}
{"mol": "C#Cc1c(C)nc(N)nc1NCCCC", "answer_label": "not fulfilled"}

====

subject_of_test: Toll-like receptor 8 (Homo sapiens)
protocol_text: Agonist activity at human TLR8 expressed in HEK293 cells co-expressing secreted alkaline phosphatase assessed as induction of NF-kappaB/AP-1 promoter activity by measuring increase in secreted alkaline phosphatase level by spectrophotometric method
pEC50: −log10 of the molar value.

{"mol": "CCCCNc1nc(N)nc(C)c1CCCC", "pEC50": 6.11}
{"mol": "CCCCNc1nc(N)nc(C)c1CCCC(C)(C)O", "pEC50": 5.91}
{"mol": "CCCCNc1nc(N)nc(C)c1CCCn1ccc2ccccc21", "pEC50": 5.96}
{"mol": "CCCCNc1nc(N)nc(C)c1CCCn1cccn1", "pEC50": 5.98}
